Taken from the supplement of paper PMC8728848.

targetOrSystem: Fuc(a1-4)GlcNAc
testProtocol: glycan array binding signal (z-score within array); higher = stronger binding
protocolConditions: glycan notation: IUPAC condensed, linker removed
This excerpt belongs to a sample that is enriched for the strongest signals.
I'd be grateful if you could share measured glycan array binding signal (z-score) for these entries.
Quick one: just the number, no unit, thanks!

query: Could you tell me which glycan array binding signal (z-score) is on file for Alpha-agglutinin (Saccharomyces cerevisiae) (protein) MFTFLKIILWLFSLALASAININDITFSNLEITPLTANKQPDQGWTATFDFSIADASSIREGDEFTLSMPHVYRIKLLNSSQTATISLADGTEAFKCYVSQQAAYLYENTTFTCTAQNDLSSYNTIDGSITFSLNFSDGGSSYEYELENAKFFKSGPMLVKLGNQMSDVVNFDPAAFTENVFHSGRSTGYGSFESYHLGMYCPNGYFLGGTEKIDYDSSNNNVDLDCSSVQVYSSNDFNDWWFPQSYNDTNADVTCFGSNLWITLDEKLYDGEMLWVNALQSLPANVNTIDHALEFQYTCLDTIANTTYATQFSTTREFIVYQGR ?
result: -0.216

query: Could you tell me which glycan array binding signal (z-score) is on file for AAL (Aleuria aurantia), P18891 (protein) PTEFLYTSKIAAISWAATGGRQQRVYFQDLNGKIREAQRGGDNPWTGGSSQNVIGEAKLFSPLAAVTWKSAQGIQIRVYCVNKDNILSEFVYDGSKWITGQLGSVGVKVGSNSKLAALQWGGSESAPPNIRVYYQKSNGSGSSIHEYVWSGKWTAGASFGSTVPGTGIGATAIGPGRLRIYYQATDNKIREHCWDSNSWYVGGFSASASAGVSIAAISWGSTPNIRVYWQKGREELYEAAYGGSWNTPGQIKDASRPTPSLPDTFIAANSSGNIDISVFFQASGVSLQQWQWISGKGWSIGAVVPTGTPAGW ?
result: 1.99
